The measured values listed here are drawn from patent US8772489B2.

- run.description: Pharmacokinetics and bioavailability of Compound I-2 in rats (plasma Compound IV-1 by LC-MS/MS)
- Format: in vivo, rat
- experimental.setup: male, Sprague-Dawley, rat, plasma, iv, 8 μmol/kg, SD rats, intravenous injection 8 μmol/kg, 4 h, mean of 3; read-out: Concentration of Compound IV-1 in plasma, Mean
- Description: The rats were fasted overnight, but allowed free access to water.

compound: COC(=O)[C@H](c1ccccc1Cl)N1CCC2SC(=O)C=C2C1 (stereo partly shown)
concentration at 4 h (ng/mL): 2.94

====

- run.description: Pharmacokinetics and bioavailability of Compound I-2 in rats (plasma Compound IV-1 by LC-MS/MS)
- Assay type: in vivo, rat
- experimental.setup: male, Sprague-Dawley, rat, plasma, iv, 8 μmol/kg, SD rats, intravenous injection 8 μmol/kg, 2 h, individual animal; read-out: Concentration of Compound IV-1 in plasma, single animals
property.name: concentration at 2 h (ng/mL)

compound: COC(=O)[C@H](c1ccccc1Cl)N1CCC2SC(=O)C=C2C1 (stereo partly shown)
property.name: concentration at 2 h
result.units: ng/mL
quantitative.result: 10.9
